- Test system: ECHCG (Echinocloa crus-galli)
- assay_notes: greenhouse post-emergence herbicidal test
- Format: in vivo
- cond: application rate 0.25 kg/ha
assay_metric: herbicidal activity against ECHGG

- O=S1(=O)Cc2nccnc2C(O)=C1c1ccccc1C(F)(F)F [reference compound]: less than good
- O=S1(=O)Cc2nccnc2C(O)=C1c1c(Cl)cccc1Cl [reference compound]: less than good
